Every entry's value here was drawn from ChEMBL document CHEMBL3433997.

# Study System: Glucose transporter (Leishmania mexicana) (UniProt O61059)
# Method Description: ST_JUDE_LEISH: Cytotoxicity at 2uM final concentration against transgenic Leishmania Mexicana promastigotes LmGT2 that are glucose transport deficient and complemented with the L. Mexicana glucose transporter 2. Activity is measured by DNA content using SYBR green in vitro
# Type: functional
Give measured inhibition for each item. Keep answers brief.
Hi! Could you send only the number? It should be in %, unit omitted.

// query Note inhibition for the compound shown: CCn1ccc2c(N3CCCS3(=O)=O)cc(C(=O)N[C@@H](Cc3ccccc3)[C@H](O)CNC(C)(C)c3cccc(OC)c3)cc21
// result 1.49

// query Read the entry CC1CCCCN1CCCNc1nc(NCc2ccccc2)c2ccccc2n1 (stereo not drawn) and write its reported inhibition.
// result 10.2

// query Consider the compound N=C(N)Nc1ccc(OCCCCCOc2ccc(NC(=N)N)cc2Br)c(Br)c1 and give its recorded inhibition.
// result 0.79

// query Assign inhibition to the following record: COc1ccc2nccc([C@@H](O)CN3CCC(NC(=O)c4cccc(C(=O)c5ccccc5)c4)CC3)c2c1
// result 0.47

// query Give recorded inhibition. Cc1cc(CNCCCCCNCc2cccc([N+](=O)[O-])c2)ccc1O
// result 1.29

// query Fill in reported inhibition for this entry: Cc1[nH]c(C)c([N+](=O)[O-])c(=O)c1-c1ccc(Oc2ccccc2)cc1
// result -1.98

// query Answer with the recorded inhibition of COc1ccc([N+](=O)[O-])cc1N(Cc1ccccc1-c1ccccc1)S(=O)(=O)c1ccc(C(F)(F)F)cc1[N+](=O)[O-] only.
// result -1.25

// query Supply reported inhibition belonging to this compound: N#Cc1cccc(-c2cnc(N)c(-c3nc4cc(S(N)(=O)=O)ccc4[nH]3)c2)c1
// result 2.21

// query Consider the compound O=C(NC1CCCCC1)N(Cc1cccc(-c2ccc(CNCc3ccc4c(c3)OCO4)cc2)c1)C1CCN(Cc2ccccc2)CC1 . State its measured inhibition.
// result 3.16

// query Report inhibition for COc1cc(CNC[C@@H](O)[C@H](Cc2ccccc2)NC(=O)c2cc(C3CCCC3)cc(N3CCCS3(=O)=O)c2)cc(OC)c1
// result 4.45

// query Identify measured inhibition corresponding to COc1ccc2c(c1CNCCCCCCNCc1c(OC)ccc3c1CCCC3)CCCC2
// result 7.55

// query Supply reported inhibition belonging to this compound: COc1cc(NC(=O)CCCCCCCCN2CCN(C)CC2)c2ncccc2c1
// result 0.86

// query Name the recorded inhibition of the compound listed here: C=CCc1cccc(OC)c1OCCCON1C(=N)N=C(N)NC1(C)C
// result 0.43

// query Assign inhibition to the following record: CC(=O)Nc1ccc(C(=O)Nc2cccc(-c3ccc(-c4nc5cccc(C)c5[nH]4)cc3)c2)cn1
// result 4.91

// query Report inhibition, nothing else, for this compound: O=C1OC2(CN1CC1CCN(Cc3ccc(O)cc3Cl)C1)c1ccccc1-c1ccccc12 (stereo not drawn)
// result 2.67

// query Indicate its recorded inhibition; the compound in question is CC(C)(Cc1ccc(Cl)cc1)NCCCCCCNCCc1ccc(O)c(O)c1
// result -1.18

// query Supply reported inhibition belonging to this compound: O=C(Nc1ccccc1)Nc1cccc(-c2ccc(-c3nc4cc(C(F)(F)F)ccc4[nH]3)cc2)c1
// result 5.45

// query Give the reported inhibition for this compound. CCN1CCC(N(Cc2ccc(-c3ccc(Cl)cc3)cc2)C(=O)Cn2c(CCc3cccc(F)c3F)cc(=O)c3ccccc32)CC1
// result 7.94

====

# Study System: Hexose transporter 1 (Plasmodium falciparum) (UniProt O97467)
# Method Description: ST_JUDE_LEISH: Cytotoxicity at 2uM final concentration against transgenic Leishmania Mexicana promastigotes LmPfHT that are glucose transport deficient and complemented with the Plasmodium falciparum hexose transporter. Activity is measured by DNA content using SYBR green in vitro
# Assay type: functional
Assignment: determine reported inhibition for the given compounds.
Quick reminder: number only, in %, skip the unit.

// query Supply reported inhibition belonging to this compound: Cc1cc(N[C@@H](Cc2ccccc2)C(=O)NCc2cccs2)nc(NCCOc2ccccc2)n1
// result 10.4

// query Name the recorded inhibition of the compound listed here: O=C(Nc1cccc(-c2cccc(-c3nc4ccccc4[nH]3)c2)c1)c1ccoc1
// result 5.63

// query Answer with the recorded inhibition for the compound listed here: COc1ccc(-c2ccc(NC(=O)c3ccccc3)cc2)cc1CN1CCCN(C)CC1
// result -0.14

// query Find the measured inhibition of COc1ccc(Nc2nc(C)cc(NCc3ccc(-c4c(C)noc4C)cc3)n2)cc1 and report it.
// result 13.9

// query # return recorded inhibition for input CCCCC(CCCC)CN1C(=O)C(c2ccccc2)(c2ccccc2)N=C1N
// result 1.66

====

# Study System: Solute carrier family 2, facilitated glucose transporter member 1 (Homo sapiens) (UniProt P11166)
# Sequence (P11166 whole entry): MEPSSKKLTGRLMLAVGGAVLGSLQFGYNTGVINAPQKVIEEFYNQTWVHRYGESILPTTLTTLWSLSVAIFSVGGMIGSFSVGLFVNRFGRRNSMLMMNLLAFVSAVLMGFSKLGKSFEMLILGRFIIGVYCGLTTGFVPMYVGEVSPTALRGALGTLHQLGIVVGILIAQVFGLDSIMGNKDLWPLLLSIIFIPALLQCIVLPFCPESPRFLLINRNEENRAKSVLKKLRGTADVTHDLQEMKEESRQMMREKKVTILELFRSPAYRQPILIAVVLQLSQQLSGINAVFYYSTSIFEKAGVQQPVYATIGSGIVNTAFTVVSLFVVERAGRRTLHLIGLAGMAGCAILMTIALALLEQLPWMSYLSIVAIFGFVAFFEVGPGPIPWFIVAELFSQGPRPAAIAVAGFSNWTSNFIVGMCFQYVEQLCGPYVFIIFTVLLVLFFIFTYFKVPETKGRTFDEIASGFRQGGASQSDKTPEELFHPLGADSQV
# Method Description: ST_JUDE_LEISH: Cytotoxicity at 2uM final concentration against transgenic Leishmania Mexicana promastigotes LmGLUT1 that are glucose transport deficient and complemented with the human glucose transporter GLUT1. Activity is measured by DNA content using SYBR green in vitro
# Format: functional
Field: inhibition. Provide a value for each of the compounds that follow.
Kindly answer with a numeric value in %, unit omitted.

// query Find the measured inhibition of OC(CNc1ccnc(Nc2ccccc2)n1)c1ccc(C(F)(F)F)cc1 (stereo not given) and report it.
// result 5.97

// query Please give the documented inhibition of O=C(NCc1ccccc1)Nc1ccc(-c2ccc(-c3nc4cc(C(F)(F)F)ccc4[nH]3)cc2)cc1
// result 2.91

// query Recall and state the measured inhibition for Cc1[nH]c(C)c(-c2ccc(Oc3ccc(Cl)cc3)cc2)c(=O)c1Cl .
// result 2.75

// query Could you please provide reported inhibition for O=C(COc1ccccc1)NC1CCN(c2ccnc3cc(Cl)ccc23)C1 (stereo not given) ? Thanks!
// result 0.14

// query Respond only with inhibition recorded for COc1cc(OC)cc(-c2nn(-c3ccc([N+](=O)[O-])cc3Cl)c(=S)n2Cc2ccco2)c1
// result -1.56

====

# Study System: Hexose transporter 1 (Plasmodium falciparum)
# Method Description: ST_JUDE_LEISH: Cytotoxicity at 2uM final concentration against transgenic Leishmania Mexicana promastigotes LmPfHT that are glucose transport deficient and complemented with the Plasmodium falciparum hexose transporter. Activity is measured by DNA content using SYBR green in vitro
# Format: functional
Give inhibition for every item shown.
Kindly answer with a numeric value in %, unit omitted.

// query Input O=C1Nc2ccccc2/C1=N/NC(=S)N1CCOCC1 , output reported inhibition.
// result -0.87

// query Report measured inhibition; entry is O=C(c1ccc(Br)o1)N1N=C(c2cccs2)CC1c1ccc(Br)cc1 (stereo not given)
// result 7.79

// query Note inhibition for the compound shown: CC(C)[C@H](NC(=O)c1ccc(O)c(-c2ccc(Cl)c(Cl)c2)c1)C(=O)NCCN1CCOCC1
// result 4.31

// query # return recorded inhibition for input Cc1ccc2[nH]c(C)cc(=NN=Cc3cccc(F)c3)c2c1
// result 7

// query For CC(C)CN1CCN(CCNc2c3ccccc3nc3ccccc23)CC1 , write its inhibition.
// result 83.1

// query Name the recorded inhibition of the item COc1cccc2c(C)cc(NCc3ccc(Cl)cc3)nc12 in your answer.
// result 4.71

// query Determine its reported inhibition: COc1ccc(CN(C)CCCc2ccc(NC(=O)c3cccc4c(=O)c5cccc(F)c5[nH]c34)cc2)cc1OC
// result 9.74

// query Report inhibition, nothing else, for this compound: CC(C)NCc1ccc(-c2cccc(-c3nc4cc(C(F)(F)F)ccc4[nH]3)c2)cc1
// result 3.48

// query State its inhibition for this compound: COc1cccc2cc(C(=O)N[C@@H](CC(C)C)C(=O)N[C@H](C=NN3CCOC3=O)Cc3ccccc3)oc12
// result 0.23

// query Entry CCCOC(=O)C1=C(C)NC2=C(C(=O)CC(c3ccc(OC)c(OC)c3)C2)C1c1cccc(O)c1 (stereo not given) needs its inhibition filled in; supply it.
// result 9.73
